TARGET: Casein kinase I isoform gamma-3 (Homo sapiens, UniProt Q9Y6M4)
Sequence (Q9Y6M4 whole entry, canonical isoform): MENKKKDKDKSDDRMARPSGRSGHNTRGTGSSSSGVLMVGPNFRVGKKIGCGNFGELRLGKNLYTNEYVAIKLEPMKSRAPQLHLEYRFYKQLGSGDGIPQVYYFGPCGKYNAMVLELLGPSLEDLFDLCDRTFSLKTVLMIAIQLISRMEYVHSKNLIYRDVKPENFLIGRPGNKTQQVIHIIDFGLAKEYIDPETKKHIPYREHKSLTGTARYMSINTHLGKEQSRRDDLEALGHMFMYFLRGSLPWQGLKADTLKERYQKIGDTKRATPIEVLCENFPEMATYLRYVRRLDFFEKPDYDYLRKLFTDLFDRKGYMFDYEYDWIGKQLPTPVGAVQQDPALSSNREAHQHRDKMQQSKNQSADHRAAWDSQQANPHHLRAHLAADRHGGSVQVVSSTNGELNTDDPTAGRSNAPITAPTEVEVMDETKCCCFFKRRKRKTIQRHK
ASSAY_TEXT: CSNK1G3-Inhibitory Activity Assay
METRIC_NAME: pIC50
Give bare numbers, as −log10 of the molar value.

Using Casein kinase I isoform gamma-3 (Homo sapiens, UniProt Q9Y6M4) as the test system, report measured pIC50 of O=C(Cc1cnco1)Nc1cc(-c2[nH]c3cccnc3c2-c2ccccn2)ccn1 .
7.30

---

TARGET: Casein kinase I isoform alpha (Homo sapiens, UniProt P48729)
Sequence (P48729 whole entry, canonical isoform): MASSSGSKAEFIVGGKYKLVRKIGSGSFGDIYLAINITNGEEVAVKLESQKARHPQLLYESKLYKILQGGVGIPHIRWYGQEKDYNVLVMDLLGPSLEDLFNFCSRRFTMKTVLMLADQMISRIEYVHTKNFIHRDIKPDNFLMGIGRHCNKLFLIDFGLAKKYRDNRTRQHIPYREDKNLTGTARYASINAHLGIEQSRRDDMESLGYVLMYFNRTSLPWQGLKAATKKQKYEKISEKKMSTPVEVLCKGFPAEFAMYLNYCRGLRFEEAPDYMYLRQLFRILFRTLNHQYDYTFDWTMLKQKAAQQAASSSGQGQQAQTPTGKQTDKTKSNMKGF
ASSAY_TEXT: CSNK1A1-Inhibitory Activity Assay (Low ATP)
METRIC_NAME: IC50 (nM)
Give bare numbers, in nM.

Answer with the recorded IC50 for the compound listed here: O=C(Cc1cnco1)Nc1cc(-c2[nH]c3cccnc3c2-c2ccccn2)ccn1 [US20250188075, Example 4]
1.82
